Hey, just so you know, these numbers are from ChEMBL document CHEMBL3272130.

List of Activity values.
- Test system: Rattus norvegicus
- Experiment Notes: Cardiovascular activity in deoxycorticosterone acetate treated hypertensive CD rat assessed as change in heart rate at 50 mg, ip after 2 hrs relative to control
- Format: ADME, organism-based
- Stated Conditions: in vivo
Measured Attribute: Activity (%)

• Br.COc1ccc(CN2CCc3c(c4c(c(OC)c3OC)CCC4)C2)cc1OC = 0.4
• C[C@](N)(Cc1ccc(O)c(O)c1)C(=O)O = 104.1
• COc1ccc(CN2CCc3c4c(c(OC)c(OC)c3C2)CCC4)cc1OC.Cl = 9
• CC(=O)Oc1c2c(c3c(c1OC(C)=O)CN(C)CC3)CCC2.O=C(O)C(F)(F)F = 7.3
• Br.COc1ccc(CCN2CCc3c4c(c(OC)c(OC)c3C2)CCC4)cc1OC = 17.6
• Br.CN1CCc2c(c(O)c(O)c3c2CCC3)C1 = 4.8
• Br.COc1c2c(c3c(c1OC)CN(C)CC3)CCC2 = -4.4
• Br.CN1CCc2c(O)c(O)c3c(c2C1)CCC3 = 5.1
